Quick list: pEC50 per entry.
# system_name: human CB1 receptors (Homo sapiens)
# Construct: expressed in transfected cells; host or cells: CHO cells
# Sequence (P21554 whole entry): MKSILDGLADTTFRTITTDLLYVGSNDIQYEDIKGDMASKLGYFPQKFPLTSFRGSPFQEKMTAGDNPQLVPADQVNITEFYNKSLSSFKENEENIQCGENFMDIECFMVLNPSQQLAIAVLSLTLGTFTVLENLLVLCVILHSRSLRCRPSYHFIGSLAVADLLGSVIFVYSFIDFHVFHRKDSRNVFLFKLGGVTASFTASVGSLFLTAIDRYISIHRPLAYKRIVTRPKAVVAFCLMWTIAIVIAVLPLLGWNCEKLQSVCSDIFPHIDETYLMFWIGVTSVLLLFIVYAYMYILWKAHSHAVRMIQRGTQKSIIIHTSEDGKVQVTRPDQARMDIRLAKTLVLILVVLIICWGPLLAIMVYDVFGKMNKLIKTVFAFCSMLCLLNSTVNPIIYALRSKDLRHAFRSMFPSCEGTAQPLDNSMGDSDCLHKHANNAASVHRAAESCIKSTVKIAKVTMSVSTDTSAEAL
# test: functional cAMP assay, human CB1
# Assay type: cell-based
# reported_conditions: CHO cells expressing human CB1, cAMP; read-out: human CB1 EC50
pEC50: −log10 of the molar value.
value_kind: pEC50

>>> value_observed("CC(C)(C)c1nc(N2CCC(F)(F)C2)c2nnn(CCc3ccccc3Cl)c2n1 [Example 103]")
6.38
>>> value_observed("CC(C)(C)c1nc(N2CCC(F)(F)C2)c2nnn(Cc3ccccn3)c2n1 [Example 73]")
7.22
>>> value_observed("CC(C)(C)c1nc(N2CCCC2(C)C)c2nnn(Cc3ccccc3Cl)c2n1 [Example 29]")
5.79
>>> value_observed("CC(C)(C)c1nc(N2CCCCO2)c2nnn(Cc3ccccc3Cl)c2n1 [Example 39]")
5.88
>>> value_observed("CN1CCN(c2nc(C(C)(C)C)nc3c2nnn3Cc2ccccc2Cl)CC1 [Example 4]")
6.72
>>> value_observed("Cc1c(Cn2nnc3c(N4CCC(F)(F)C4)nc(C(C)(C)C)nc32)ccc[n+]1[O-] [Example 147]")
6.68
>>> value_observed("CC(C)(C)c1nc(N2CC[C@@](C)(O)C2)c2nnn(Cc3ccccc3S(C)(=O)=O)c2n1 [Example 223-b]")
6.61
>>> value_observed("CC(C)(C)c1nc(N2CCC(F)(F)C2)c2nnn(C3CCS(=O)(=O)C3)c2n1 (centres unmarked) [Example 126]")
6.30
>>> value_observed("CC(C)(C)c1nc(N2CC[C@](C)(O)C2)c2nnn(Cc3ccccc3S(C)(=O)=O)c2n1 [Example 223-a]")
6.62
